assay: Cytotoxicity against human 786-O cells assessed as inhibition of mitochondrial viability at 10 uM after 6 hrs by CMXRos staining based assay relative to control; assay type: cell-based, 786-0; conditions: read-out: INH
recorded_endpoint: cytotoxicity at 6 h, 10 µM (%)
Your answer is read as %, so omit the unit and give the number.

Sample "NC(=S)N/N=C/c1ccco1" ; cytotoxicity at 6 h, 10 µM observed: -4.4

# cytotoxicity at 6 h, 10 µM (molecule: "COc1ccc(-c2cccc(/C=N/NC(N)=S)c2)cc1OC" ) is -13.1

Entry "N/C(S)=N/N=C/c1cccc(Br)c1" ; cytotoxicity at 6 h, 10 µM = 0.71

---

Biological target: UniProt Q01782
Sequence (whole entry): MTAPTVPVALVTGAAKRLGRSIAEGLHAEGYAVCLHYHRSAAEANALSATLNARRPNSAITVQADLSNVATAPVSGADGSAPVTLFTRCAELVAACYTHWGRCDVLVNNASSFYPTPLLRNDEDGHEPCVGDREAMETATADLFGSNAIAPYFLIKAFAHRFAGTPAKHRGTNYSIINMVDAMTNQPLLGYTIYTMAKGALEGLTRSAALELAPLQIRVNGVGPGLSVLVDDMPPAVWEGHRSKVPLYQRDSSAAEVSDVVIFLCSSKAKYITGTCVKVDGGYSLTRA
Test: Inhibition of Leishmania major PTR1 at 50 uM using H2B as substrate in presence of NADPH by photometric analysis relative to control
Decision: inhibition >= 9% yields satisfied, all other cases yield not satisfied.

Prompt: Decide: inhibition of "C/C(=N\NC(N)=S)c1ccc(O)cc1" >= 9%?
Completion: not satisfied

Prompt: Dear colleague, could you confirm whether "N/C(S)=N/N=C/c1ccc([N+](=O)[O-])cc1" has inhibition at or above 9%?
Completion: not satisfied

Prompt: Does the reported inhibition for "COc1ccc(/C=N/NC(N)=S)cc1OC" fall at or above the 9% mark?
Completion: satisfied

Prompt: Hi, just wondering whether NC(=S)N/N=C/C(O)C(O)C(O)CO (configuration not stated) shows inhibition of 9% or higher.
Completion: not satisfied

Prompt: Quick check: does "NC(=S)N/N=C/c1ccc(O)cc1" have inhibition greater than or equal to 9%?
Completion: satisfied

Prompt: Form field: inhibition at least 9%? Entry: "Cc1ccsc1/C=N/NC(N)=S"
Completion: not satisfied

---

target: Pteridine reductase 1 (Leishmania major); assay: Inhibition of Leishmania major PTR1 at 50 uM using H2B as substrate in presence of NADPH by photometric analysis relative to control
So I've got a bunch of compounds here, and I need their inhibition values.
Report only the number, with the unit % understood.

The compound listed as "COc1ccc(-c2cccc(/C=N/NC(N)=S)c2)cc1OC" has a reported inhibition of 4.76

Value of inhibition reported for the compound "NC(=S)N/N=C/c1ccco1" is 14.8

Given item "C/C(=N\NC(N)=S)c1ccc(N)cc1" , the value recorded as its inhibition is 2.62

---

assay: Cytotoxicity against human THP1 cells assessed as viable cells at 100 uM after 72 hrs by MTT assay relative to control; type: cell-based, THP-1; conditions: read-out: Activity
recorded_endpoint: viability at 72 h, 100 µM

For "COc1cc(/C=N/NC(N)=S)cc(OC)c1OC" the compound record lists viability at 72 h, 100 µM as 40.2%

Reported viability at 72 h, 100 µM of "CN(C)c1ccc(/C=N/N=C(/N)S)c2ccccc12" : 9.31%

So for "NC(=S)N/N=C/c1csc2ccccc12" , the logged viability at 72 h, 100 µM turned out to be 44.9%

For "NC(=S)N/N=C/c1cccc(-c2ccccc2)c1" the compound record lists viability at 72 h, 100 µM as 45.2%

Consider "NC(=S)N/N=C/c1ccccc1O" . Its measured viability at 72 h, 100 µM is 54.7%

Per the record, NC(=S)N/N=C/C(O)C(O)C(O)CO (stereo not given) has viability at 72 h, 100 µM of 67.6%

viability at 72 h, 100 µM measured on "C/C(=N\NC(N)=S)c1ccc(N)cc1" = 95.2%

Short answer for "NC(=S)N/N=C/c1cccc(-c2ccc3c(c2)OCO3)c1" : viability at 72 h, 100 µM was 2.61%

For this compound ( "NC(=S)N/N=C/c1ccc(OCc2ccc(Cl)c(Cl)c2)cc1" ), measured viability at 72 h, 100 µM is 38.8%

viability at 72 h, 100 µM recorded for this compound, "COc1cccc(OC)c1/C=N/NC(N)=S" , is 76.8%

// viability at 72 h, 100 µM value for "NC(=S)N/N=C/c1ccc2ncccc2c1" : 63.7%

What the record says about "Cc1ccsc1/C=N/NC(N)=S" : viability at 72 h, 100 µM is 76%

viability at 72 h, 100 µM recorded for this compound, "NC(=S)N/N=C/C=C/c1ccccc1" , is 44.1%

viability at 72 h, 100 µM for "NC(=S)N/N=C/c1ccco1" is 92.9%

Notebook: "N/C(S)=N/N=C/c1ccc([N+](=O)[O-])cc1" , viability at 72 h, 100 µM read as 75.6%

This collection of values is drawn from ChEMBL document CHEMBL4196006.
